The entries below come with measured selectivity ratio values attached.
# assaySummary: Selectivity index, ratio of EC50 for African green monkey BGM cells to IC50 for chloroquine-resistant mefloquine-sensitive Plasmodium falciparum W2 ring stage form infected in human erythrocytes
# Assay type: toxicity, cell-based
# conditionsUsed: read-out: Selectivity Index

compound=FC(F)(F)c1cc(Nc2nnc(C(F)(F)F)[nH]2)c2cccc(C(F)(F)F)c2n1 reportedresult=7.3
compound=FC(F)(F)c1cc(NC2CCCCC2)c2cccc(C(F)(F)F)c2n1 reportedresult=11.5
compound=Cc1nnc(Nc2cc(C(F)(F)F)nc3c(C(F)(F)F)cccc23)[nH]1 reportedresult=132

Short answer for FC(F)(F)c1cc(N2CCOCC2)c2cccc(C(F)(F)F)c2n1 : selectivity ratio was < 11.7

Short answer for FC(F)(F)c1cc(Nc2ccncc2)c2cccc(C(F)(F)F)c2n1 : selectivity ratio was > 66.7

Short answer for Fc1ccc(Nc2cc(C(F)(F)F)nc3c(C(F)(F)F)cccc23)cc1 : selectivity ratio was < 2.67

Short answer for FC(F)(F)c1cc(Nc2nnc[nH]2)c2cccc(C(F)(F)F)c2n1 : selectivity ratio was < 8

Short answer for FC(F)(F)c1cc(Nc2ccccn2)c2cccc(C(F)(F)F)c2n1 : selectivity ratio was < 2.29

Short answer for FC(F)(F)c1cc(Nc2ccccc2C(F)(F)F)c2cccc(C(F)(F)F)c2n1 : selectivity ratio was < 0.57

Short answer for Clc1ccc2c(Nc3ccncc3)ccnc2c1 : selectivity ratio was 67

Short answer for COc1ccc(Nc2cc(C(F)(F)F)nc3c(C(F)(F)F)cccc23)cc1OC : selectivity ratio was 27
